// provenance: patent US8822517B2

Target: serotoninergic 5-HT2A receptor (Homo sapiens, UniProt P28223)
Sequence (P28223 whole entry): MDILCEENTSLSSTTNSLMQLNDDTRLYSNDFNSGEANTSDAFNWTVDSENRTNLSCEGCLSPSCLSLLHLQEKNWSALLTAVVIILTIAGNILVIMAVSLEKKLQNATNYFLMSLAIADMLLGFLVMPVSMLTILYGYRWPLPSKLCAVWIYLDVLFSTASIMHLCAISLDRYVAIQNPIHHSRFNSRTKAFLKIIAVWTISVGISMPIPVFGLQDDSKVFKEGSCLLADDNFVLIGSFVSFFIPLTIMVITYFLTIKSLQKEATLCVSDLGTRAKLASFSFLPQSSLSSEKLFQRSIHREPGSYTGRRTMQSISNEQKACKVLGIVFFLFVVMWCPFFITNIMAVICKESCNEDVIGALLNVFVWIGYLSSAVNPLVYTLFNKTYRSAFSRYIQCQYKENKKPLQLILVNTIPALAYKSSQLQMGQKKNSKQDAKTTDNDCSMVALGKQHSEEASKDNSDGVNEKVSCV
Experiment: Binding assay 5-HT2A (h), [3H]ketanserin, HEK-293 cells
Set-up: expressed in transfected cells; host or cells: HEK-293 cells
Details: read-out: 5-HT2A
Label F if inhibition at 1 µM falls below 80%; label T in every other case.

> print(dat)
                         structure.notation  group
1  O=S(=O)(NCCCCN1CCN(c2cccc3c2OCCO3)CC1)c1cccs1      F

Qu. I'd appreciate it if you could say whether `O=S(=O)(NCCCCN1CCN(c2nsc3ccccc23)CC1)c1cccc2scnc12` has inhibition at 1 µM at least equal to 80%.
Ans. T

Qu. Is the recorded value of inhibition at 1 µM equal to or greater than 80% for this molecule? `O=S(=O)(NCCCCN1CCN(c2cccc3c2OCCO3)CC1)c1ccc(F)c(F)c1`
Ans. F

###

Kindly state inhibition at 1 µM for each of the entries shown.
Biological target: dopaminergic D2 receptor (Homo sapiens)
Sequence (P14416 1-414 isoform P14416-2): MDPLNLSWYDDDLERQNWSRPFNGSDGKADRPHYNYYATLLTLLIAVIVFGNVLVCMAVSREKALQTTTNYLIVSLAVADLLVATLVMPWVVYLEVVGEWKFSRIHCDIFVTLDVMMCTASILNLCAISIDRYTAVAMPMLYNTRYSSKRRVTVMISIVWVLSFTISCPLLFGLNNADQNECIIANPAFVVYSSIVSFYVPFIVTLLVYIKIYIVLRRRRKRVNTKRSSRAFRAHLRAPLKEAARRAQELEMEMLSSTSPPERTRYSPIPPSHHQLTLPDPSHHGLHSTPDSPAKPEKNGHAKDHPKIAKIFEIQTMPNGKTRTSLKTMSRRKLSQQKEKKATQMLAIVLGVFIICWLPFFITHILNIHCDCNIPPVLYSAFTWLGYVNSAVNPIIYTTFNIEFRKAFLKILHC
Assay: Binding assay D2S (h), [3H]methyl-spiperone, HEK-293 cells
Design: expressed in transfected cells; host or cells: HEK-293 cells
Conditions: read-out: D2 [%]
Give bare numbers, in %.

> print(dat)
                                   molecule  numeric.readout
1  O=S(=O)(NCCCCN1CCN(c2noc3ccccc23)CC1)c1c[nH]c2ncccc12 [Compound 89]               89

Would you mind listing inhibition at 1 µM for each of the following molecules?
1. O=S(=O)(NCCCN1CCN(c2nsc3ccccc23)CC1)c1cccc(C(F)(F)F)c1 [Compound 258]
2. O=S(=O)(NCCCCN1CCN(c2cccc3[nH]ccc23)CC1)c1c[nH]c2ncccc12 [Compound 31]
3. O=S(=O)(NCCCCN1CCC(c2noc3cc(F)ccc23)CC1)c1cc2ccccc2s1 [Compound 312]
4. O=S(=O)(NCCCCN1CCN(c2noc3ccccc23)CC1)c1ccc(-c2ccccc2)cc1 [Compound 283]
5. O=S(=O)(NCCCN1CCC(c2noc3cc(F)ccc23)CC1)c1cc2ccccc2s1 [Compound 345]

Ans.
1: 95; 2: 38; 3: 99; 4: 99; 5: 109

Qu. Need inhibition at 1 µM, item O=S(=O)(NCCCCN1CCN(c2noc3ccccc23)CC1)c1cccc(Cl)c1 [Compound 85]
Ans. 100

###

Exercise: state measured inhibition at 1 µM for each of the compounds provided.
Target: serotonine transporter (SERT) receptor (Homo sapiens)
Construct: expressed in transfected cells; host or cells: CHO cells
Assay: Binding assay SERT (h), [3H]imipramine, CHO cells
Settings: read-out: SERT [%]
One number for each entry, in %.

// known answers, use as guide
> print(dat)
                                   compound  numeric.readout
1  O=S(=O)(NCCCCN1CCN(c2nsc3ccccc23)CC1)c1cccc(O)c1 [Compound 231]               59
2  O=S(=O)(NCCCCN1CCN(c2nsc3ccccc23)CC1)c1ccc(C(F)(F)F)cc1 [Compound 234]               32
3  O=S(=O)(NCCCCN1CCN(c2cccc3[nH]ccc23)CC1)c1cnc2ccccn12 [Compound 30]               14
4  O=S(=O)(NCCCCN1CCN(c2nsc3ccccc23)CC1)c1cccc(F)c1 [Compound 71]               41
5  O=S(=O)(NCCCCN1CCC(c2noc3cc(F)ccc23)CC1)c1cc2ccccc2s1 [Compound 312]               35
6  O=c1[nH]c2ccc(S(=O)(=O)NCCCCN3CCN(c4nsc5ccccc45)CC3)cc2o1 [Compound 4]               26

// batch mode: one inhibition at 1 µM value per listed entry
1. O=S(=O)(NCCCN1CCC(c2noc3cc(F)ccc23)CC1)c1ccc2c(c1)CCO2 [Compound 350]
2. O=S(=O)(NCCCN1CCC(c2noc3cc(F)ccc23)CC1)c1cnc2ccccn12 [Compound 356]

Ans.
[-5, 11]

###

Target: adrenergic α2C receptor (Homo sapiens)
Sequence (P18825 1-462): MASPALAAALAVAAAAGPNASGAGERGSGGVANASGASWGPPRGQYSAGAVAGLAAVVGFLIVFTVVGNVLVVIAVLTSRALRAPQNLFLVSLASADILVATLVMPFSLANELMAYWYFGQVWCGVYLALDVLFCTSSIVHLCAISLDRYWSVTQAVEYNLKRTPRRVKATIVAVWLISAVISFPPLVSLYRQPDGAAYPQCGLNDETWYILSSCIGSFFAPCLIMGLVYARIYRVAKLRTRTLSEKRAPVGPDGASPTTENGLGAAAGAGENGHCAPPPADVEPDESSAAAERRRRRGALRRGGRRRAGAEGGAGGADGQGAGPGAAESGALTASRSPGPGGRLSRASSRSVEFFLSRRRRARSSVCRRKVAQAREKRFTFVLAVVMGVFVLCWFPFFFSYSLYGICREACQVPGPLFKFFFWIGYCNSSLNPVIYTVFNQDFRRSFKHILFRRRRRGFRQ
Assay: Binding assay α2C (h), [3H]RX 821002, CHO cells
Design: expressed in transfected cells; host or cells: CHO cells
Conditions: read-out: α2C [%]
Readout Kind: inhibition at 1 µM (%)
Give bare numbers, in %.

These recorded examples may help you get a feel for the data.
> print(dat)
                                   compound        readout.kind  numeric.readout
1  O=S(=O)(NCCCCN1CCN(c2nsc3ccccc23)CC1)c1cccc2scnc12 [Compound 243]  inhibition at 1 µM               96
2  Cc1cccc(S(=O)(=O)NCCN2CCC(c3noc4cc(F)ccc34)CC2)c1 [Compound 25]  inhibition at 1 µM               98
3  Cc1cccc(S(=O)(=O)NCCCCN2CCN(c3noc4ccccc34)CC2)c1 [Compound 15]  inhibition at 1 µM               98
4  O=S(=O)(NCCCCN1CCC(c2noc3cc(F)ccc23)CC1)c1ccc(Br)cc1 [Compound 298]  inhibition at 1 µM               98
5  CC(C)(C)c1ccc(S(=O)(=O)NCCCCN2CCC(c3noc4cc(F)ccc34)CC2)cc1 [Compound 301]  inhibition at 1 µM               98
6  O=S(=O)(NCCCN1CCN(c2nsc3ccccc23)CC1)c1ccc(C(F)(F)F)cc1 [Compound 257]  inhibition at 1 µM               99
7  O=c1[nH]c2cccc(N3CCN(CCCNS(=O)(=O)c4cccc(Cl)c4)CC3)c2[nH]1 [Compound 174]  inhibition at 1 µM               55
8  O=S(=O)(NCCCN1CCN(c2nsc3ccccc23)CC1)c1csc2ccccc12 [Compound 263]  inhibition at 1 µM               93

Report inhibition at 1 µM for each item below.
1. O=S(=O)(NCCCCN1CCC(c2noc3cc(F)ccc23)CC1)c1ccc(Cl)s1 [Compound 308]
2. O=S(=O)(NCCCCN1CCC(c2noc3cc(F)ccc23)CC1)c1csc2ccccc12 [Compound 313]
3. O=S(=O)(NCCCCN1CCN(c2cccc3[nH]ccc23)CC1)c1ccc(F)cc1 [Compound 359]

Ans.
1. 96
2. 100
3. 99

###

Target: serotonine transporter (SERT) receptor (Homo sapiens, UniProt P31645)
Construct: expressed in transfected cells; host or cells: CHO cells
Sequence (P31645 whole entry): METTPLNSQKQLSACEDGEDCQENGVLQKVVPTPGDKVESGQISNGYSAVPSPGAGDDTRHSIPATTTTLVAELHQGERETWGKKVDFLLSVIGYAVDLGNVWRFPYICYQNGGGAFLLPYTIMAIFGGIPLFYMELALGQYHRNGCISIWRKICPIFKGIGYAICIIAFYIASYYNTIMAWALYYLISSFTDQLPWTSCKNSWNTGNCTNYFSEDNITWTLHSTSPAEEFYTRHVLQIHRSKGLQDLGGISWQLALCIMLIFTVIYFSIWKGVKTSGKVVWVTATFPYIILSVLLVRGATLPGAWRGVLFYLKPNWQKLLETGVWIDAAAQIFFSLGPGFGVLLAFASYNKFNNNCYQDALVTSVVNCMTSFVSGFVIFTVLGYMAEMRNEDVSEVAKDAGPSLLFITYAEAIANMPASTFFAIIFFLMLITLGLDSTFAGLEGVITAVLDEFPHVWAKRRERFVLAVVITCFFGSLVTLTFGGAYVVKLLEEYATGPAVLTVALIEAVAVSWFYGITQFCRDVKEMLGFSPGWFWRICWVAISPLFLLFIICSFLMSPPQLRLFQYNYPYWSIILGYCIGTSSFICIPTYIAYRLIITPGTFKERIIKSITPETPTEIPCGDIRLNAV
Test: Binding assay SERT (h), [3H]imipramine, CHO cells
Conditions: read-out: SERT [%]
Could you please report measured inhibition at 1 µM for the items listed next?
Answers are plain numbers, in %.

Solved cases below.
> print(dat)
                         structure.notation  numeric.readout
1  Cc1cccc(S(=O)(=O)NCCCCN2CCN(c3nsc4ccccc34)CC2)c1               57
2  O=S(=O)(NCCN1CCC(c2noc3cc(F)ccc23)CC1)c1ccc2ccccc2c1               53
3  Cn1ccc2c(S(=O)(=O)NCCCN3CCC(c4noc5cc(F)ccc45)CC3)cccc21                4

// for each molecule in input: emit inhibition at 1 µM
1. O=S(=O)(NCCCCN1CCC(c2noc3cc(F)ccc23)CC1)c1ccc(Cl)c(Cl)c1
2. O=S(=O)(NCCCCN1CCN(c2nsc3ccccc23)CC1)c1ccc(OC(F)(F)F)cc1
3. O=S(=O)(NCCCN1CCN(c2nsc3ccccc23)CC1)c1ccc2c(c1)OCO2
4. O=S(=O)(NCCCN1CCC(c2noc3cc(F)ccc23)CC1)c1ccc(F)c(F)c1
5. O=S(=O)(NCCCCN1CCN(c2noc3ccccc23)CC1)c1ccc(Cl)c(Cl)c1
6. O=S(=O)(NCCCCN1CCN(c2nsc3ccccc23)CC1)c1cc2ccc(Cl)cc2s1

Ans.
[23, -15, 96, -1, 0, 50]
